B1: SLC19A2 (parent)
chain: IYPVWTYSYLVLLFPVFLATDYLR

variants of: B1; assay: protein stability index of a GFP-peptide fusion (GPS, HEK-293T) (PSI 1-6); higher = more stable; details: c terminus: a fixed tail appended;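 also: lentivirally expressed fusions sorted by FACS into six bins by GFP to DsRed ratio, PSI derived from sequencing read proportions per bin multiplied by bin number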
Quantity kind: protein stability index
Answers are plain numbers.

Below are worked cases with known answers.
{"Variant": "W5I", "Quantity kind": "protein stability index", "Reported measurement": 4.83}
{"Variant": "A19P", "Quantity kind": "protein stability index", "Reported measurement": 4.21}
{"Variant": "V4S", "Quantity kind": "protein stability index", "Reported measurement": 3.21}
{"Variant": "V11P", "Quantity kind": "protein stability index", "Reported measurement": 2.04}
{"Variant": "W5E", "Quantity kind": "protein stability index", "Reported measurement": 3.02}
{"Variant": "L23R", "Quantity kind": "protein stability index", "Reported measurement": 3.03}
{"Variant": "L18A", "Quantity kind": "protein stability index", "Reported measurement": 2.5}
{"Variant": "Y9L", "Quantity kind": "protein stability index", "Reported measurement": 2.46}

I'm hoping you can list protein stability index for every variant here, please.
1. A19N
2. Y2G

Marked response:
1. 3.19
2. 1.97

I'm hoping you can list protein stability index for every variant here, please.
1. A19F
2. Y2D
3. V4H
4. R24A
5. I1P
6. L23T
7. Y7E
8. Y2P

Marked response:
1. 3.11
2. 2.77
3. 3.32
4. 2.61
5. 3.33
6. 2.48
7. 3.72
8. 2.62

I'm hoping you can list protein stability index for every variant here, please.
1. L13P
2. V11G
3. L18S
4. L12Q

Marked response:
[1.48, 3.44, 3.42, 3.02]

I'm hoping you can list protein stability index for every variant here, please.
1. F17N
2. I1L
3. W5G
4. V11N

Marked response:
3.6
3.49
4.5
2.92

I'm hoping you can list protein stability index for every variant here, please.
1. V16S
2. Y22R
3. F14R
4. L23Q
5. Y7M
6. D21G

Marked response:
1. 3.4
2. 1.75
3. 3.83
4. 2.54
5. 2.32
6. 2.73

I'm hoping you can list protein stability index for every variant here, please.
1. V16D
2. Y22D
3. F14H
4. V11Q
5. L10H
6. D21H
7. V4C
8. V16K

Marked response:
4.04
2.55
3.32
4.14
3.75
3.39
2.33
1.95

What the record says about "A19K" : protein stability index is 1.69
